Parameter: EC50. Scope: all listed entries.
- TARGET ENTITY: T1, mesothelin on cells (endogenous on SN12C, OVCAR3, SW1990); HEK293 cells expressing cell-surface human … (human, UniProt Q13421 296-598)
- T1 construct: whole, on cells; also called cell-surface MSLN
- T1 sequence (Q13421 other isoform, or with tags, fused parts or gaps limits assumed): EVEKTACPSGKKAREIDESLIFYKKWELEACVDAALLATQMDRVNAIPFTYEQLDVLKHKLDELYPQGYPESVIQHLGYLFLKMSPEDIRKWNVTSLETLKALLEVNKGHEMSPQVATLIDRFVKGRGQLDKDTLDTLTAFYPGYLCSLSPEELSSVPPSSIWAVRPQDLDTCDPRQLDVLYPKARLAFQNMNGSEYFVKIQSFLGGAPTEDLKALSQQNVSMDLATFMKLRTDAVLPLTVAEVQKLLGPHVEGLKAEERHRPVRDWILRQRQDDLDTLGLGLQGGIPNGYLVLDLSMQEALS
- PROCEDURE DETAILS: FACS, SN12C (CA125-)
READOUT TYPE: EC50 (µg/mL)

• HuAM11 (antibody, V domains shown, fully human antibody) VH: EVQLVQSGAEVKKPGASVKVSCKASGDTFKRYYMHWVRQAPGQGLEWMGIINPSGVSTTYAQKFQGRVTMTRDTSTSTVYMELSSLRSEDTAVYYCAEVRGSGFNYFGMDVWGQGTLVTVSS VL: SYELTQPPSVSVSPGQTASITCSGDKLGDKYASWYQQKPGQSPVLVIYQDNRRPSGIPERFSGSNSGNTATLTISGTQAMDEADYYCQVWDSDTYVFGTGTKVTVL = 0.04
• HuAM16 (antibody, V domains shown, fully human antibody) VH: EVQLVQSGAEVKKPGASVKVSCKASGDTFNRYYVQWVRQAPGQGLEWMGIINPSGVSTTYAQKFQGRVTMTRDTSTSTVYMELSSLRSEDTAVYYCAETRGSGFNYFGMDVWGQGTLVTVSS VL: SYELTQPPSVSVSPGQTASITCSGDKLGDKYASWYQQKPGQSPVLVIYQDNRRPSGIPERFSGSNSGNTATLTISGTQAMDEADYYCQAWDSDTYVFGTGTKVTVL = 0.08
• HuAM5 (antibody, V domains shown, fully human antibody) VH: EVQLVQSGAEVKKPGASVKVSCKASGDTFNRYYVHWVRQAPGQGLEWMGIINPSGVSTTYAQKFQGRVTMTRDTSTSTVYMELSSLRSEDTAVYYCAEVRGSGYNYFAMDVWGQGTLVTVSS VL: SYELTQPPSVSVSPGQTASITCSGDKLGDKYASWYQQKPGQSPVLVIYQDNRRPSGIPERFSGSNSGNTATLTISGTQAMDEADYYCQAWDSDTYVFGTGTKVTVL = 0.09
• HuAM13 (antibody, V domains shown, fully human antibody) VH: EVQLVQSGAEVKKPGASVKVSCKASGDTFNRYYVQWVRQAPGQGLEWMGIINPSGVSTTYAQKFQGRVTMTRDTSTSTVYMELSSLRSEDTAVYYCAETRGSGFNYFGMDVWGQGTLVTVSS VL: SYELTQPPSVSVSPGQTASITCSGDKLGDKYASWYQQKPGQSPVLVIYQDNRRPSGIPERFSGSNSGNTATLTISGTQAMDEADYYCQVWDSDTYVFGTGTKVTVL = 0.09
• HuAb17 (antibody, V domains shown, fully human antibody) VH: EVQLVQSGAEVKEPGASVKVSCKASGDTFNRYYVHWARQAPGQGLEWMGIINPSGVSTTYAQKFQGRVTMTRDTPTNTVYMELGSLRPEDTAVYFCAESRGSGYNYFAMDVWGQGTLVTVSS VL: SYELTQPPSVSVSPGQTADITCSGDKLGDKYASWYQQKPGQSPVLVIYQDNRRPSGIPERFSGSNSGNTATLTISGTQAMDEADYYCQAWDSDTYVFGPGTKVTVL = 2.74
• HuAM15 (antibody, V domains shown, fully human antibody) VH: EVQLVQSGAEVKKPGASVKVSCKASGDTFKRYYVHWVRQAPGQGLEWMGIINPSGVSTTYAQKFQGRVTMTRDTSTSTVYMELSSLRSEDTAVYYCAEVRGSGFNYFGMDVWGQGTLVTVSS VL: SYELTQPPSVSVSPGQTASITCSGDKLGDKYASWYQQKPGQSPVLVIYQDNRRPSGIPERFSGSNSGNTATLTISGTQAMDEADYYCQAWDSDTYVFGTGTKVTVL = 0.07

Every entry's value here was drawn from patent US20180194862A1.
